Molecular target: NanoLuc® Luciferase (Oplophorus gracilirostris, UniProt Q9GV45, A31E/A60N/A81I/F95D/I117V/K70R/L54V/L99Q/M102K/N193R/P142E/Q151K/Q38R/Q45L/V71I/Y165I)
Sequence (Q9GV45 other isoform, or with tags, fused parts or gaps with the stated changes): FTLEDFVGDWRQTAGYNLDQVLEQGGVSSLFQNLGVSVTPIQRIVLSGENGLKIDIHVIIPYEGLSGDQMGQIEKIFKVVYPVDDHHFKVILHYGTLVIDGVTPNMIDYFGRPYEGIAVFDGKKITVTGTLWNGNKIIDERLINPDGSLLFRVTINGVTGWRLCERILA
Type: biochemical
Details: ratio to coelenterazine (=1); initial light output three minutes after substrate addition
Classification field: enter true for I (relative light units, ratio in comparison to native coelenterazine) values not below 2, false for values below it.

Examples from the recorded data:
>  <COMPOUND>
O=c1c(Cc2ccc(F)cc2)nc2c(Cc3ccccc3)[nH]c(-c3ccccc3)cn1-2

>  <CLASSIFICATION>
true

$$$$
>  <COMPOUND>
O=c1c(Cc2ccc(F)nc2F)nc2c(Cc3ccccc3)[nH]c(-c3ccccc3)cn1-2

>  <CLASSIFICATION>
true

$$$$
>  <COMPOUND>
O=c1c(Cc2ccc(Cl)nc2)nc2c(Cc3ccccc3)[nH]c(-c3ccccc3)cn1-2

>  <CLASSIFICATION>
true

$$$$

Turning now to a further record.
Enquiry: Could you verify whether the entry Cc1noc(C)c1Cc1nc2c(Cc3ccccc3)[nH]c(-c3ccccc3)cn-2c1=O shows I (relative light units, ratio in comparison to native coelenterazine) of no less than 2?
Return: false

----------
Target: NanoLuc® Luciferase (Oplophorus gracilirostris, UniProt Q9GV45, A31E/A60N/A81I/F95D/I117V/K70R/L54V/L99Q/M102K/N193R/P142E/Q151K/Q38R/Q45L/V71I/Y165I)
Format: biochemical
Conditions: ratio to coelenterazine (=1); initial light output three minutes after substrate addition
Classification field: enter 1 for I (relative light units, ratio in comparison to native coelenterazine) values not below 1, -1 for values below it.

>  <COMPOUND>
Nc1ccc(Cc2nc3c(Cc4ccccc4)[nH]c(-c4ccccc4)cn-3c2=O)cc1 [Compound 9]

>  <CLASSIFICATION>
1

$$$$
>  <COMPOUND>
O=c1c(Cc2cn3ccsc3n2)nc2c(Cc3ccccc3)[nH]c(-c3ccccc3)cn1-2 [Compound 80]

>  <CLASSIFICATION>
1

$$$$
>  <COMPOUND>
COc1cncc(Cc2nc3c(Cc4ccccc4)[nH]c(-c4ccccc4)cn-3c2=O)c1 [Compound 72]

>  <CLASSIFICATION>
1

$$$$
>  <COMPOUND>
O=c1c(Cc2ccc(Cl)nc2Cl)nc2c(Cc3ccccc3)[nH]c(-c3ccccc3)cn1-2 [Compound 75]

>  <CLASSIFICATION>
-1

$$$$
>  <COMPOUND>
O=c1c(Cc2cnns2)nc2c(Cc3ccccc3)[nH]c(-c3ccccc3)cn1-2 [Compound 82]

>  <CLASSIFICATION>
1

$$$$

Enquiry: Could you verify whether the entry O=c1c(Cc2cn(-c3ccccc3)nc2-c2ccccc2)nc2c(Cc3ccccc3)[nH]c(-c3ccccc3)cn1-2 [Compound 14] shows I (relative light units, ratio in comparison to native coelenterazine) of no less than 1?
Return: -1

Enquiry: Same read-out for Cn1nnc2cc(Cc3nc4c(Cc5ccccc5)[nH]c(-c5ccccc5)cn-4c3=O)ccc21 [Compound 11] ?
Return: -1

Enquiry: Same read-out for Cn1cc(Cc2nc3c(Cc4ccccc4)[nH]c(-c4ccccc4)cn-3c2=O)c(=O)n(C)c1=O [Compound 16] ?
Return: -1

Enquiry: Same read-out for COc1ncc(Cc2nc3c(Cc4ccccc4)[nH]c(-c4ccccc4)cn-3c2=O)cn1 [Compound 15] ?
Return: -1

Enquiry: Same read-out for O=c1c(Cc2cc3ccccc3s2)nc2c(Cc3ccccc3)[nH]c(-c3ccccc3)cn1-2 [Compound 6] ?
Return: 1

Enquiry: Same read-out for COc1ccc(Cc2nc3c(Cc4ccccc4)[nH]c(-c4ccccc4)cn-3c2=O)cn1 [Compound 71] ?
Return: 1

Enquiry: Same read-out for COc1ccc(Cc2nc3c(Cc4ccccc4)[nH]c(-c4ccccc4)cn-3c2=O)c(OC)n1 [Compound 73] ?
Return: 1

Enquiry: Same read-out for COc1nc(Cl)ccc1Cc1nc2c(Cc3ccccc3)[nH]c(-c3ccccc3)cn-2c1=O [Compound 74] ?
Return: 1
